target: human recombinant adrenergic α2B receptor (Homo sapiens, UniProt P18089); construct: expressed in transfected cells; host or cells: Chinese hamster ovary (CHO-K1) cells; assay: Adrenergic α2B radioligand binding assay; conditions: 1 μM; [3H]Rauwolscine specific binding; read-out: Percent Inhibition of ligand binding, Adrenergic (1 μM ligand conc.) α2B
Sequence (P18089 whole entry): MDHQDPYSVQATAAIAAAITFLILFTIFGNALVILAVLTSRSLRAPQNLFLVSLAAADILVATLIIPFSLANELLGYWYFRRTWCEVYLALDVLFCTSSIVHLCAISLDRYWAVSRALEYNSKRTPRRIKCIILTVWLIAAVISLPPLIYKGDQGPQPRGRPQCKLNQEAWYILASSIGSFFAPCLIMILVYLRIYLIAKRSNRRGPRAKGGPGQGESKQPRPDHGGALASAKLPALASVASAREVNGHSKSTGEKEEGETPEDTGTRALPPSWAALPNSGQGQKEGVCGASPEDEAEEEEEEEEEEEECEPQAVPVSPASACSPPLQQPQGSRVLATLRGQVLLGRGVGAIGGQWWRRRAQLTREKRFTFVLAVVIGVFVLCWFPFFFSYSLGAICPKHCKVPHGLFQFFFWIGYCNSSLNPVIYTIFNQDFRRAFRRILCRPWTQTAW
quantity-name: inhibition at 1 µM
A complete answer gives the number and then names the unit.

inhibition at 1 µM lookup needed for C/C(=C\n1c2c(c3cc(C)ccc31)C1CCN(C2)C1)c1ccc(Cl)cc1Cl (stereo not drawn) [Compound 33] , thanks.
73%

Any idea what its inhibition at 1 µM is? The molecule is Cc1ccc2c(c1)c1c(n2CC(=O)c2ccc(Cl)cc2)CN2CCC1C2 (stereo not drawn) [Compound 29]
58%

Name the reported inhibition at 1 µM value associated with the molecule COc1ccc(C(O)Cn2c3c(c4cc(C)ccc42)C2CCN(C3)C2)cc1OC (stereo not drawn) [Compound 8]
34%

Data request, read-out inhibition at 1 µM, for C/C(=C\n1c2c(c3cc(C)ccc31)C1CCN(C2)C1)c1ccc(Cl)cc1 (stereo not drawn) [Compound 32]
98%

Recorded inhibition at 1 µM of Cc1ccc2c(c1)c1c(n2CCc2ccccn2)CN2CCC1C2 (stereo not drawn) [Compound 11] , please.
48%

State the recorded inhibition at 1 µM for this entry: Cc1ccc2c(c1)c1c(n2CC(C)(O)c2ccc(F)cc2)CN2CCC1C2 (stereo not drawn) [Compound 2]
84%

Item Cc1ccc2c(c1)c1c(n2CC(C)(O)c2ccc(Cl)c(Cl)c2)CN2CCC1C2 (stereo not drawn) [Compound 13] has what recorded inhibition at 1 µM?
99%

Entry Cc1ccc2c(c1)c1c(n2CC(O)c2ccccc2)CN2CCC1C2 (stereo not drawn) [Compound 4] has what inhibition at 1 µM?
89%

Please report the recorded inhibition at 1 µM for Cc1ccc2c(c1)c1c(n2CC(=O)N2CCCCC2)CN2CCC1C2 (stereo not drawn) [Compound 7] .
0%

Sample Cc1ccc2c(c1)c1c(n2CCc2nc(-c3ccccc3)cs2)CN2CCC1C2 (stereo not drawn) [Compound 19] — what was its inhibition at 1 µM?
61%

For the molecule shown here, Cc1ccc2c(c1)c1c(n2CC(=O)c2ccc(F)cc2)CN2CCC1C2 (stereo not drawn) [Compound 28] , give the reported inhibition at 1 µM.
45%

Return reported inhibition at 1 µM; argument: Cc1ccc(/C=C/n2c3c(c4cc(C)ccc42)C2CCN(C3)C2)cc1 (stereo not drawn) [Compound 10]
66%

----------
target: human recombinant serotonin (5-Hydroxytryptamine) 5-HT2C receptor (Homo sapiens, UniProt P28335); construct: expressed in transfected cells; host or cells: Chinese hamster ovary (CHO-K1) cells; assay: Serotonin 5-HT2C radioligand binding assay; conditions: [3H]Mesulergine specific binding, read-out: Percent Inhibition of ligand binding, Serotonin (1 μM ligand concentration) 5-HT2C
Sequence (P28335 33-458): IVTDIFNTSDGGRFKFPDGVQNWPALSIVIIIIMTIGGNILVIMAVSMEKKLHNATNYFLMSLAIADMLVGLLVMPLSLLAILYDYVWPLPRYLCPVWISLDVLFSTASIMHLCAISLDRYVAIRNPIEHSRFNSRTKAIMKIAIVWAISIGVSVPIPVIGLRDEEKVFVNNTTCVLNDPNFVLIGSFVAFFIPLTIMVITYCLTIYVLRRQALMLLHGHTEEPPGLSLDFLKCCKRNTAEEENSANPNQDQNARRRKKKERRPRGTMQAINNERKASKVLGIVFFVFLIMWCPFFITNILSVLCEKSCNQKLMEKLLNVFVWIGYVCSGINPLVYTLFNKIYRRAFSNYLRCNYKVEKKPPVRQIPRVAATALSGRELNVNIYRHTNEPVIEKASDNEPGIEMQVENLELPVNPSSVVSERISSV
I would appreciate it if you labelled entries y when inhibition at 1 µM is 90% or higher, otherwise n.

Would you say Cc1ccc2c(c1)c1c(n2CC(=O)N2CCCCC2)CN2CCC1C2 (stereo not shown) shows inhibition at 1 µM at minimum 90%?
n

In plain terms: is recorded inhibition at 1 µM at least 90% for Cc1ccc2c(c1)c1c(n2CCc2ccncc2)CN2CCC1C2 (stereo not shown) ?
n

// inclusive: inhibition at 1 µM at least 90%? input: Cc1ccc2c(c1)c1c(n2CC(O)c2ccc(F)cc2)CN2CCC1C2 (stereo not shown)
n

Could you verify whether the entry Cc1ccc2c(c1)c1c(n2CC(=O)c2ccccc2)CN2CCC1C2 (stereo not shown) shows inhibition at 1 µM of no less than 90%?
n

Is inhibition at 1 µM for COc1ccc(/C(C)=C/n2c3c(c4cc(C)ccc42)C2CCN(C3)C2)cc1 (stereo not shown) at or above 90%?
y

----------
Consider the following compounds; for each one, report its inhibition at 1 µM.
target: human recombinant histamine H1 receptor (Homo sapiens, UniProt P35367); assay: Histamine H1 radioligand binding assay; conditions: [3H]Pyrilamine specific binding, read-out: Percentage Inhibition, Histamine Binding (1 μM) H1
Sequence (P35367 whole entry): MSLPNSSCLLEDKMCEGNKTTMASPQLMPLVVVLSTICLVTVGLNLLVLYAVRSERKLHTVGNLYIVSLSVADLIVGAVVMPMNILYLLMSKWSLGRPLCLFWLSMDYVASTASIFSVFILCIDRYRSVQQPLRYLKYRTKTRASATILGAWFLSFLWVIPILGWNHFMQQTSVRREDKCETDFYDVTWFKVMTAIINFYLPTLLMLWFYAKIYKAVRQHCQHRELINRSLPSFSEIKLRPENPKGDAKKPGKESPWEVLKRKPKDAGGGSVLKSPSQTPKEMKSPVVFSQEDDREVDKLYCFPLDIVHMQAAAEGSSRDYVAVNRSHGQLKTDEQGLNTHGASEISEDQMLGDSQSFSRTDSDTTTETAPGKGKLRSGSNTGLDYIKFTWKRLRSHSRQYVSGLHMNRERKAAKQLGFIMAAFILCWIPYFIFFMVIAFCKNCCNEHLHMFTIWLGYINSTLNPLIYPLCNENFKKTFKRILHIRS
Expressed in %, but write only the number.

What reported inhibition at 1 µM corresponds to Cc1ccc2c(c1)c1c(n2CC(=O)N2CCNCC2)CN2CCC1C2 (stereo not drawn) on human recombinant histamine H1 receptor (Homo sapiens, UniProt P35367)?
5

Return inhibition at 1 µM measured with human recombinant histamine H1 receptor (Homo sapiens, UniProt P35367) given this compound: Cc1ccc2c(c1)c1c(n2CCc2cncc(F)c2)CN2CCC1C2 (stereo not drawn)
89

So what inhibition at 1 µM did Cc1ccc2c(c1)c1c(n2CC(=O)c2ccc(Cl)cc2)CN2CCC1C2 (stereo not drawn) get with human recombinant histamine H1 receptor (Homo sapiens, UniProt P35367)?
56

Which measured inhibition at 1 µM belongs to Cc1ccc2c(c1)c1c(n2CC(=O)c2ccc(F)cc2)CN2CCC1C2 (stereo not drawn) , tested on human recombinant histamine H1 receptor (Homo sapiens, UniProt P35367)?
64

For the record Cc1ccc2c(c1)c1c(n2CC(C)(O)c2ccc(F)c(F)c2)CN2CCC1C2 (stereo not drawn) , what value of inhibition at 1 µM is listed for human recombinant histamine H1 receptor (Homo sapiens, UniProt P35367)?
82

Lab request: please report inhibition at 1 µM under test system human recombinant histamine H1 receptor (Homo sapiens, UniProt P35367) for Cc1ccc2c(c1)c1c(n2CC(=O)N2CCC(C)CC2)CN2CCC1C2 (stereo not drawn)
30

Record Cc1ccc2c(c1)c1c(n2C#Cc2ccc(Cl)cc2)CN2CCC1C2 (stereo not drawn) : what is its inhibition at 1 µM with human recombinant histamine H1 receptor (Homo sapiens, UniProt P35367)?
0

Recorded inhibition at 1 µM for Cc1ccc2c(c1)c1c(n2CC(C)(O)c2ccc(F)cc2)CN2CCC1C2 (stereo not drawn) with human recombinant histamine H1 receptor (Homo sapiens, UniProt P35367), please?
21

Form field: inhibition at 1 µM recorded for COc1ccc(/C(C)=C/n2c3c(c4cc(C)ccc42)C2CCN(C3)C2)cc1F (stereo not drawn) with human recombinant histamine H1 receptor (Homo sapiens, UniProt P35367) (enter value)
21

Checklist item: inhibition at 1 µM tested on human recombinant histamine H1 receptor (Homo sapiens, UniProt P35367), entry Cc1ccc2c(c1)c1c(n2CC(O)c2ccc(F)cc2)CN2CCC1C2 (stereo not drawn) , value?
42

Form: Entry = C/C(=C\n1c2c(c3cc(C)ccc31)C1CCN(C2)C1)c1ccc(Cl)cc1 (stereo not drawn) | System = human recombinant histamine H1 receptor (Homo sapiens, UniProt P35367) | inhibition at 1 µM = ____
85

Short answer please: inhibition at 1 µM, human recombinant histamine H1 receptor (Homo sapiens, UniProt P35367), entry COc1ccc(C(O)Cn2c3c(c4cc(C)ccc42)C2CCN(C3)C2)cc1OC (stereo not drawn)
33

----------
target: human recombinant serotonin (5-Hydroxytryptamine) 5-HT6 receptor (Homo sapiens); construct: expressed in transfected cells; host or cells: human HeLa cells; assay: Serotonin 5-HT6 radioligand binding assay; conditions: [3H]LSD specific binding, read-out: Percent Inhibition of ligand binding, Serotonin (1 μM ligand concentration) 5-HT6
Sequence (P50406 whole entry): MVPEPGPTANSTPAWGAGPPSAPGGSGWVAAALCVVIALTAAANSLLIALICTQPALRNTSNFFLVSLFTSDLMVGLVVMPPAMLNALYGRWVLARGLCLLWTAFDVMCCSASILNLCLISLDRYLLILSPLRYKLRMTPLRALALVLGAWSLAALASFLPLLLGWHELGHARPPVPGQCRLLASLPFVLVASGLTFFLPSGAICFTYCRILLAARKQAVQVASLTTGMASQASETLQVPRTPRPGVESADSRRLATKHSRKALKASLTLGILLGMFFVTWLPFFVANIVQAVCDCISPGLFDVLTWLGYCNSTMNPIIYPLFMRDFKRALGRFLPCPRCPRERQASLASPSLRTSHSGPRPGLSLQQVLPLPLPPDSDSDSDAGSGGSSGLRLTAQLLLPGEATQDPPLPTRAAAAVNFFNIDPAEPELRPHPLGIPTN
# inhibition at 1 µM >= 50% gives Y, anything below gives N

Exam item: decide whether the reported inhibition at 1 µM for Cc1ccc2c(c1)c1c(n2C#Cc2ccc(Cl)cc2)CN2CCC1C2 (stereo not shown) is at least 50%.
N

hey, is inhibition at 1 µM for this one >= 50%? Cc1ccc2c(c1)c1c(n2CC(=O)N2CCC(C)CC2)CN2CCC1C2 (stereo not shown)
N

Check the entry COc1ccc(/C(C)=C/n2c3c(c4cc(C)ccc42)C2CCN(C3)C2)cc1F (stereo not shown) : does inhibition at 1 µM equal or exceed 50%?
N

API: above_or_equal(metric=inhibition at 1 µM, cutoff=50%) for item Cc1ccc2c(c1)c1c(n2CC(C)(O)c2ccc(Cl)c(Cl)c2)CN2CCC1C2 (stereo not shown)
N

Please indicate if the recorded inhibition at 1 µM for Cc1ccc2c(c1)c1c(n2CCc2ccccn2)CN2CCC1C2 (stereo not shown) meets or exceeds 50%.
N

Hi team, for Cc1ccc2c(c1)c1c(n2CC(C)(O)c2ccc(F)cc2)CN2CCC1C2 (stereo not shown) , is the recorded inhibition at 1 µM at or above 50%?
Y

Entry Cc1ccc2c(c1)c1c(n2CC(=O)N2CCNCC2)CN2CCC1C2 (stereo not shown) : is its inhibition at 1 µM no less than 50%?
N

Hi team, for C/C(=C\n1c2c(c3cc(C)ccc31)C1CCN(C2)C1)c1ccc(Cl)c(Cl)c1 (stereo not shown) , is the recorded inhibition at 1 µM at or above 50%?
N

In plain terms: is recorded inhibition at 1 µM at least 50% for Cc1ccc2c(c1)c1c(n2CC(=O)c2ccc(Cl)cc2)CN2CCC1C2 (stereo not shown) ?
N

Is reported inhibition at 1 µM greater than or equal to 50% here: C/C(=C\n1c2c(c3cc(C)ccc31)C1CCN(C2)C1)c1ccc(F)c(F)c1 (stereo not shown)
Y

Hello, I need to know if C/C(=C\n1c2c(c3cc(C)ccc31)C1CCN(C2)C1)c1ccccc1F (stereo not shown) has measured inhibition at 1 µM not below 50%. Thanks!
Y

Textbook exercise: given the entry C=C(Cn1c2c(c3cc(C)ccc31)C1CCN(C2)C1)c1ccc(F)cc1 (stereo not shown) , state whether its inhibition at 1 µM is greater than or equal to 50%.
Y

Is inhibition at 1 µM for Cc1ccc2c(c1)c1c(n2CC(C)(O)c2ccc(F)c(F)c2)CN2CCC1C2 (stereo not shown) at or above 50%?
Y

Is the recorded value of inhibition at 1 µM equal to or greater than 50% for this compound? Cc1ccc2c(c1)c1c(n2CC(C)(O)c2ccc(F)cc2F)CN2CCC1C2 (stereo not shown)
N

Does Cc1ccc2c(c1)c1c(n2CC(=O)c2ccccc2)CN2CCC1C2 (stereo not shown) have a reported inhibition at 1 µM of at least 50%?
N

Decide: inhibition at 1 µM of Cc1ccc2c(c1)c1c(n2C(=O)Cc2ccc(F)cc2)CN2CCC1C2 (stereo not shown) >= 50%?
N

Hi, just wondering whether Cc1ccc2c(c1)c1c(n2CC(=O)N2CCCCC2)CN2CCC1C2 (stereo not shown) shows inhibition at 1 µM of 50% or higher.
N

Is the recorded value of inhibition at 1 µM equal to or greater than 50% for this compound? Cc1ccc2c(c1)c1c(n2CCc2cncc(F)c2)CN2CCC1C2 (stereo not shown)
N

Kindly determine if inhibition at 1 µM recorded for C/C(=C\n1c2c(c3cc(C)ccc31)C1CCN(C2)C1)c1ccncc1 (stereo not shown) is above or exactly 50%.
Y

Decide: inhibition at 1 µM of Cc1ccc2c(c1)c1c(n2CCc2nc(-c3ccccc3)cs2)CN2CCC1C2 (stereo not shown) >= 50%?
N

Tell me whether inhibition at 1 µM is at least 50% here: Cc1ccc2c(c1)c1c(n2CC(=O)NC2CCCCC2)CN2CCC1C2 (stereo not shown)
N

Please tell me: is the compound Cc1ccc(/C=C/n2c3c(c4cc(C)ccc42)C2CCN(C3)C2)cc1 (stereo not shown) at or over 50% in terms of inhibition at 1 µM?
N

Can Cc1ccc2c(c1)c1c(n2CC(O)c2ccc(F)cc2)CN2CCC1C2 (stereo not shown) be said to have inhibition at 1 µM at or above 50%?
N

Please tell me: is the compound Cc1ccc2c(c1)c1c(n2CCc2ccc(C(F)(F)F)nc2)CN2CCC1C2 (stereo not shown) at or over 50% in terms of inhibition at 1 µM?
N

Item C/C(=C\n1c2c(c3cc(C)ccc31)C1CCN(C2)C1)c1ccc(Cl)cc1Cl (stereo not shown) with inhibition at 1 µM of 50% or above?
N

Would you say COc1ccc(C(O)Cn2c3c(c4cc(C)ccc42)C2CCN(C3)C2)cc1OC (stereo not shown) shows inhibition at 1 µM at minimum 50%?
N

Given the entry Cc1ccc2c(c1)c1c(n2CCc2ccncc2)CN2CCC1C2 (stereo not shown) , answer whether its inhibition at 1 µM meets or surpasses 50%.
N

Could you please find out whether C/C(=C/n1c2c(c3cc(C)ccc31)C1CCN(C2)C1)c1ccccc1F (stereo not shown) has inhibition at 1 µM that meets 50% or exceeds it?
Y
